- STUDY_CONDITIONS: 308.15 K; 101.3 kPa; Liquid
Hi there, I'd appreciate the recorded mass density for every entry that follows.
Numbers only, in kg/m3.

COc1ccccc1 978.7
Cc1ccccc1C 866.29

Go through the list and state mass density for each entry.
1. Cc1ccc(C)cc1
2. N#Cc1ccccc1
3. Cc1ccc(C)c(C)c1
4. CCc1ccccc1
5. Cc1cc(C)cc(C)c1
6. CC(C)c1ccccc1
7. Cc1cccc(C)c1

Result:
[846.98, 990.67, 862.53, 852.72, 851.88, 848.26, 850.01]

---

- STUDY_CONDITIONS: 298.15 K; 101.3 kPa; Liquid
Lab note: compare mass density with 900 kg/m3, writing 1 if less and -1 if equal or more.

MOLECULE	CLASS_ASSIGNMENT
N#Cc1ccccc1 [benzonitrile]	-1
CC(C)c1ccccc1 [isopropylbenzene]	1
Cc1cccc(C)c1 [1,3-dimethylbenzene]	1
COc1ccccc1 [anisole]	-1
Cc1ccc(C)c(C)c1 [1,2,4-trimethylbenzene]	1

Problem: Please determine if Cc1ccc(C)cc1 [1,4-dimethylbenzene] is below 900 kg/m3 in terms of mass density.
Result: 1

Problem: Please determine if Cc1cc(C)cc(C)c1 [1,3,5-trimethylbenzene] is below 900 kg/m3 in terms of mass density.
Result: 1

Problem: Please determine if CCc1ccccc1 [ethylbenzene] is below 900 kg/m3 in terms of mass density.
Result: 1
